Assignment: determine reported relative cell viability for the given compounds.
# Test system: TE10
# method_summary: relative cell viability vs DMSO, compound + 0.2 uM CuET (fraction); higher = less cytotoxic
# test_settings: 2 µM; co-treatment: CuET (bis(diethyldithiocarbamate)copper) 0.2 uM; 48 h
Whole data set: some 2,000 compounds, median “relative cell viability vs DMSO, compound + 0.2 uM CuET” near 1, cut for the lowest 2% near 0.25. The list comes from a sample in which the lowest values are over-represented; it also holds close analogues and randomly drawn compounds.
Numbers only.

Worked examples follow.
1. COc1cc2c(cc1NS(=O)(=O)c1ccc(Br)cc1C)n(C)c(=O)n2C | 1.17
2. Cc1cc(=O)oc2c(C=O)c(O)ccc12 | 1.24
3. O=C(O)c1ccc(N2C(=O)C(=Cc3ccc(-c4ccc([N+](=O)[O-])cc4)o3)C=C2c2ccccc2)cc1 | 1.1
4. CNc1nc(Nc2cnn(C3CCN(C4COC4)CC3F)c2Cl)ncc1C(F)(F)F (stereo not drawn) | 1.19

Please give relative cell viability for each item listed below.
1. CC(C)=CCCC(C)(OC1OC(COC2OCC(O)C(O)C2O)C(O)C(O)C1O)C1CCC2(C)C1C(O)CC1C3(C)CCC(OC4OC(CO)C(O)C(O)C4O)C(C)(C)C3CCC12C (stereo not drawn) [Gynostemma Extract]
2. CN1CCC(NC(=O)c2cc(-c3c(O)cc(O)cc3Oc3ccc([N+](=O)[O-])cc3)on2)CC1
3. Cn1c(=O)cc(N2CCC[C@@H](N)C2)n(Cc2ccccc2C#N)c1=O [Alogliptin]
4. Cc1c(-c2ccnn2C)cc(C(=O)NCc2ccc(S(C)(=O)=O)cn2)c(=O)n1-c1cccc(C(F)(F)F)c1 [Alvelestat (AZD9668)]

Out:
1. 1.04
2. 0.643
3. 1.1
4. 0.993

----------
# Test system: TE10
# method_summary: relative cell viability vs DMSO, compound + 0.2 uM CuET (fraction); higher = less cytotoxic
# test_settings: 2 µM; co-treatment: CuET (bis(diethyldithiocarbamate)copper) 0.2 uM; 48 h
Where a name gives a salt, the structure may show the parent alone. In all, about 2,000 compounds were measured (“relative cell viability vs DMSO, compound + 0.2 uM CuET”: median about 1, lowest 2% from about 0.25 on). The sample holds the lowest values, similar compounds and a random draw of the others, so the mix is not that of the screen.
Flag rule - relative cell viability less than 0.5 flags Met; the remaining entries get Not met.

# example entries with known answers
1. Cn1cc(CNCC2CCN(c3ncc(C(=O)NO)cn3)CC2)c2ccccc21 | Met
2. CN1CCc2c(c3ccccc3n2Cc2ccc(C(=O)NO)cc2)C1 [Tubastatin A HCl] | Not met
3. Cc1nc(-c2cn3c(n2)-c2ccc(-c4cnn(C(C)(C)C(N)=O)c4)cc2OCC3)n(C(C)C)n1 | Not met
4. CN1CCc2c(c3ccccc3n2Cc2ccc(C(=O)NO)cc2)C1 [Tubastatin A] | Not met
5. COC(=O)C1=C(C#N)NC(C)=C(C(=O)OC(C)C)C1c1cccc([N+](=O)[O-])c1 (configuration not stated) | Not met

In: Determine whether this molecule shows relative cell viability lower than 0.5 (ties excluded): `C#Cc1cccc(Nc2ncnc3cc(OCCOC)c(OCCO)cc23)c1`
Out: Not met

In: Bench note: check whether C[N+]1(C)[C@@H]2C[C@@H](OC(=O)C(O)(c3cccs3)c3cccs3)C[C@H]1[C@@H]1O[C@@H]12 [Tiotropium Bromide hydrate] shows relative cell viability below 0.5
Out: Not met

In: Please indicate whether the reported relative cell viability of `COc1cc(C=CC(=O)N2CCC=CC2=O)cc(OC)c1OC` is strictly below 0.5.
Out: Met

In: Could you please tell me whether relative cell viability recorded for COCC[n+]1c2c(n(Cc3cnccn3)c1C)C(=O)c1ccccc1C2=O [YM155 (Sepantronium Bromide)] is less than 0.5?
Out: Met

In: Consider `C#Cc1cccc(Nc2ncnc3cc(OC)c(OCCCCCCC(=O)NO)cc23)c1` . Does its relative cell viability lie strictly below 0.5?
Out: Met

In: Below 0.5 on relative cell viability? Entry `CCS(=O)(=O)Nc1ccc2[nH]c(O)c(C(=Nc3ccc(CN4CCCCC4)cc3)c3ccccc3)c2c1`
Out: Not met

----------
# System: TE10
# method_summary: relative cell viability vs DMSO, compound + 0.2 uM CuET (fraction); higher = less cytotoxic
# test_settings: 2 µM; co-treatment: CuET (bis(diethyldithiocarbamate)copper) 0.2 uM; 48 h
Where a name gives a salt, the structure may show the parent alone. Whole data set: some 2,000 compounds, median “relative cell viability vs DMSO, compound + 0.2 uM CuET” near 1, cut for the lowest 2% near 0.25. What follows is part of a selection rich in the lowest values, with near analogues and random picks from the rest.
Answer each item with its documented relative cell viability.
Answers are plain numbers.

1) CC(NC(=O)Cc1cc(F)cc(F)c1)C(=O)NC(C(=O)OC(C)(C)C)c1ccccc1 (stereo not given) | 1.23
2) C=C1CC2(O)OC3(CC2C(C)C)C(C)CCC13 (stereo not given) [Curcumol] | 0.838
3) Cc1ccc(-n2[nH]c(C)c(N=Nc3cccc(-c4cccc(C(=O)O)c4)c3O)c2=O)cc1C [Eltrombopag Olamine] | 1.15
4) OC(CC1c2ccccc2-c2cncn21)C1CCCCC1 (stereo not given) | 1.13
5) NC(=O)N/N=C/c1ccc([N+](=O)[O-])o1 [Nitrofural] | 1.3

Hi! Can you tell me relative cell viability for each of these compounds?
1. O=C(O)CCCc1c[nH]c2ccccc12 [3-Indolebutyric acid (IBA)]
2. CC(CCC(=O)NCCS(=O)(=O)O)C1CCC2C3C(O)CC4CC(O)CCC4(C)C3CCC12C (stereo not given) [Sodium Tauroursodeoxycholate (TUDC)]
3. C/C(=C\C(=O)Nc1ccccc1C(=O)O)c1ccc2ccccc2c1
4. COc1nc(-c2ccc3c(c2)OCO3)n(-c2ccc(NC(=O)CSc3ccccc3)cc2)n1 [SecinH3]

Out:
[1.12, 1.24, 1.14, 1.25]

Record relative cell viability for all entries; do not skip any.
1. CC(C)N(CCC(=O)c1ccc2ccccc2c1)Cc1ccccc1
2. Cc1cc(C)c(-c2csc(NC(=O)c3ccccc3)n2)c(C)c1
3. Cc1ccc(S(=O)(=O)c2ccc([N+](=O)[O-])o2)cc1
4. NC1CC1c1ccc(-c2cccc(O)c2)cc1 (stereo not given)
5. O=C(NO)c1ccc(CC(=O)N(CCO)c2ccccc2)cc1
6. CC(NC(=O)C(Cc1ccccc1)NC(=O)OCc1ccccc1)C(=O)CF (stereo not given)

Out:
[0.181, 1.17, 0.175, 1.13, 1.06, 1.14]

The following compounds each have a reported value; give each one's relative cell viability.
1. O=S(=O)(c1ccccc1)N(CC(F)(F)F)c1ccc(C(O)(C(F)(F)F)C(F)(F)F)cc1
2. COc1ccc(C2=NC(c3ccc(Cl)cc3)C(c3ccc(Cl)cc3)N2C(=O)N2CCNC(=O)C2)c(OC(C)C)c1 (stereo not given) [Nutlin-3a]
3. O=C(/C=C/c1ccc(CN(CCO)CCc2c[nH]c3ccccc23)cc1)NO [LAQ824 (Dacinostat)]
4. CCCCN1CCCCC1C(=O)Nc1c(C)cccc1C (stereo not given) [Bupivacaine HCl]

Out:
1. 1
2. 1.15
3. 0.145
4. 1.03

In: Tell me the measured relative cell viability of OCc1c[nH]c2ccccc12 [Indole-3-carbinol] , please.
Out: 1.1

----------
Exercise: state measured relative cell viability for each of the compounds provided.
# Test system: TE10
# method_summary: relative cell viability vs DMSO, compound + 0.2 uM CuET (fraction); TE10 is an esophageal squamous carcinoma line; higher = less cytotoxic
# test_settings: 2 µM; co-treatment: CuET (bis(diethyldithiocarbamate)copper) 0.2 uM; 48 h
The full ranking holds about 2,000 compounds; the median of “relative cell viability vs DMSO, compound + 0.2 uM CuET” is about 1, and the lowest 2% start at about 0.25. This is one part of a sample in which the lowest values are shown more often than they occur.
Answers are plain numbers.

Please review the following examples before continuing.
1. CCN=C1N[C@@H]2[C@@H](O)[C@H](O)[C@@H](CO)O[C@@H]2S1 [Thiamet G] | 1.16
2. C=CC(=O)Nc1cccc(Nc2nc(Nc3ccc(OCCOC)cc3)ncc2F)c1 | 0.892
3. CC(C)c1nc(CN(C)C(=O)N[C@@H](CCN2CCOCC2)C(=O)N[C@H](CC[C@H](Cc2ccccc2)NC(=O)OCc2cncs2)Cc2ccccc2)cs1 [Cobicistat (GS-9350)] | 0.957
4. O=C(Cc1ccc(-c2ccc(OCCN3CCOCC3)cc2)cn1)NCc1ccccc1 | 0.827
5. CC(=O)OCC(=O)[C@@]12N=C(C)O[C@@H]1C[C@H]1[C@@H]3CCC4=CC(=O)C=C[C@]4(C)[C@H]3[C@@H](O)C[C@@]12C [Deflazacort] | 1.03
6. CN(C)C(=O)c1ccc(S(=O)(=O)c2ccc(NC(=O)C(C)(O)C(F)(F)F)c(Cl)c2)cc1 (stereo not given) | 1.2
7. COc1cc(OC)c(NC(=O)Nc2cc(C)on2)cc1Cl | 1.1
8. CC(=O)NC(Cc1ccc(O)cc1)C(=O)NC(CCCN=C(N)N)C(=O)NC(Cc1ccccc1)C(N)=O (stereo not given) | 0.977
9. CC(C)C[C@H](NC(=O)[C@H](CCc1ccccc1)NC(=O)CN1CCOCC1)C(=O)N[C@@H](Cc1ccccc1)C(=O)N[C@@H](CC(C)C)C(=O)[C@@]1(C)CO1 [Carfilzomib (PR-171)] | 0.198

Next item in the queue.
In: Lab note: need relative cell viability for COC[C@H](NC(=O)c1cnc(C)s1)C(=O)N[C@@H](COC)C(=O)N[C@@H](Cc1ccccc1)C(=O)[C@@]1(C)CO1 [Oprozomib (ONX 0912)] on TE10, anyone have it?
Out: 0.182
